# conditionLabel: in dichloromethane, 303.44 K
endpointLabel: solubility (mole fraction)
Give a plain numeric answer without units written out.

*Q* Report solubility (mole fraction), nothing else, for this compound: CO/N=C(\C(=O)Sc1nc2ccccc2s1)c1csc(N)n1
*A* 0.00267

---

# conditionLabel: in acetonitrile, 292.98 K
endpointLabel: solubility (mole fraction)
Give a plain numeric answer without units written out.

*Q* Report solubility (mole fraction), nothing else, for this compound: CO/N=C(\C(=O)Sc1nc2ccccc2s1)c1csc(N)n1
*A* 0.000451

---

# conditionLabel: in acetone, 283.31 K
endpointLabel: solubility (mole fraction)
Give a plain numeric answer without units written out.

*Q* Report solubility (mole fraction), nothing else, for this molecule: CO/N=C(\C(=O)Sc1nc2ccccc2s1)c1csc(N)n1
*A* 0.00286

---

# conditionLabel: in 1,2-dichloroethane, 277.83 K
endpointLabel: solubility (mole fraction)

*Q* Report solubility (mole fraction), nothing else, for this molecule: CO/N=C(\C(=O)Sc1nc2ccccc2s1)c1csc(N)n1
*A* 0.000358
